test system: MiaPaCa; test: Cell proliferation assay (Alamar Blue); assay type: cell-based; conditions: Homo sapiens, MIA PaCa-2, 96 h, MiaPaCa cells, four days
Catalogue of IC50 readings, one per entry.
quantity: IC50 (µM)

[[record]]
compound = "CCOC(=O)CCNC(=O)c1ccc2c(c1)nc(Nc1cccc(C(F)(F)F)c1)c1nc(NC3CC3)ncc12 [drawing 371]"
quantity = "IC50"
unit = "µM"
readout_qualifier = "="
numeric_readout = 0.33

[[record]]
compound = "O=C(O)c1ccc2c(c1)nc(Nc1ccccc1)c1ccncc12 [drawing 286]"
quantity = "IC50"
unit = "µM"
readout_qualifier = "="
numeric_readout = 7.51

[[record]]
compound = "O=C(O)c1ccc2c(c1)nc(Nc1cccc(C(F)(F)F)c1)c1ncncc12 [drawing 335]"
quantity = "IC50"
unit = "µM"
readout_qualifier = "="
numeric_readout = 2.23

[[record]]
compound = "COC(=O)c1ccc2c(c1)nc(Nc1ccccc1)c1nc(S(C)(=O)=O)ncc12"
quantity = "IC50"
unit = "µM"
readout_qualifier = "="
numeric_readout = 2.82

[[record]]
compound = "C#Cc1cccc(Nc2nc3cc(C(=O)O)ccc3c3cnc(NC)nc23)c1 [drawing 332]"
quantity = "IC50"
unit = "µM"
readout_qualifier = "="
numeric_readout = 2.34

[[record]]
compound = "O=C(O)c1ccc2c(c1)nc(Nc1cc(F)cc(F)c1)c1nc(NC3CC3)ncc12 [drawing 358]"
quantity = "IC50"
unit = "µM"
readout_qualifier = "="
numeric_readout = 2.32

[[record]]
compound = "O=C(O)c1ccc2c(c1)nc(Nc1cccc(F)c1)c1ccncc12 [drawing 298]"
quantity = "IC50"
unit = "µM"
readout_qualifier = "="
numeric_readout = 6.86

[[record]]
compound = "Fc1cc(Nc2nc3cc(-c4nnn[nH]4)ccc3c3cnccc23)ccc1Cl [drawing 306]"
quantity = "IC50"
unit = "µM"
readout_qualifier = ">"
numeric_readout = 10

[[record]]
compound = "CCOc1ncc2c(n1)c(Nc1cccc(C(F)(F)F)c1)nc1cc(C(=O)O)ccc12 [drawing 336]"
quantity = "IC50"
unit = "µM"
readout_qualifier = "="
numeric_readout = 18.1

[[record]]
compound = "O=C(O)c1ccc2c(c1)nc(Nc1cccc(Cl)c1)c1ncncc12 [drawing 303]"
quantity = "IC50"
unit = "µM"
readout_qualifier = "="
numeric_readout = 2.09

[[record]]
compound = "NC(=O)c1ccc2c(c1)nc(Nc1cccc(C(F)(F)F)c1)c1nc(NC3CC3)ncc12 [drawing 364]"
quantity = "IC50"
unit = "µM"
readout_qualifier = "="
numeric_readout = 3.97

[[record]]
compound = "O=C(O)c1ccc2c(c1)nc(Nc1cccc(Cl)c1)c1nc(NC3CC3)ncc12 [drawing 334]"
quantity = "IC50"
unit = "µM"
readout_qualifier = "="
numeric_readout = 0.47

[[record]]
compound = "C#Cc1cccc(Nc2nc3cc(C(=O)O)ccc3c3cnccc23)c1 [drawing 309]"
quantity = "IC50"
unit = "µM"
readout_qualifier = "="
numeric_readout = 3.85

[[record]]
compound = "OCc1ccc2c(c1)nc(Nc1cccc(Cl)c1)c1ccncc12"
quantity = "IC50"
unit = "µM"
readout_qualifier = "="
numeric_readout = 4.05

[[record]]
compound = "O=C(O)c1ccc2c(c1)nc(Nc1cccc(F)c1)c1nc(NC3CC3)ncc12 [drawing 359]"
quantity = "IC50"
unit = "µM"
readout_qualifier = "="
numeric_readout = 3.27

[[record]]
compound = "O=C(O)c1ccc2c(c1)nc(Nc1cccc(F)c1)c1ncncc12 [drawing 302]"
quantity = "IC50"
unit = "µM"
readout_qualifier = "="
numeric_readout = 3.36

[[record]]
compound = "O=C(O)c1ccc2c(c1)nc(Nc1cccc(Cl)c1)c1nc(O)ncc12 [drawing 350]"
quantity = "IC50"
unit = "µM"
readout_qualifier = ">"
numeric_readout = 50

[[record]]
compound = "COC(=O)c1ccc2c(c1)nc(Cl)c1ncncc12"
quantity = "IC50"
unit = "µM"
readout_qualifier = "="
numeric_readout = 2.92

[[record]]
compound = "CCCNc1ncc2c(n1)c(Nc1ccccc1)nc1cc(C(=O)O)ccc12 [drawing 319]"
quantity = "IC50"
unit = "µM"
readout_qualifier = "="
numeric_readout = 2.99

[[record]]
compound = "Nc1ncc2c(n1)c(Nc1ccc(F)c(Cl)c1)nc1cc(C(=O)O)ccc12 [drawing 344]"
quantity = "IC50"
unit = "µM"
readout_qualifier = "="
numeric_readout = 0.95

[[record]]
compound = "C#Cc1cccc(Nc2nc3cc(C(=O)O)ccc3c3cncnc23)c1 [drawing 304]"
quantity = "IC50"
unit = "µM"
readout_qualifier = "="
numeric_readout = 0.67

[[record]]
compound = "CN(C)CCNc1ncc2c(n1)c(Nc1ccc(F)c(Cl)c1)nc1cc(C(=O)O)ccc12 [drawing 361]"
quantity = "IC50"
unit = "µM"
readout_qualifier = "="
numeric_readout = 2.14

[[record]]
compound = "C#Cc1cccc(Nc2nc3cc(C(=O)O)ccc3c3cnc(NCCCN4CCOCC4)nc23)c1 [drawing 331]"
quantity = "IC50"
unit = "µM"
readout_qualifier = "="
numeric_readout = 2.26

[[record]]
compound = "Fc1cccc(Nc2nc3cc(-c4nnn[nH]4)ccc3c3cnccc23)c1 [drawing 305]"
quantity = "IC50"
unit = "µM"
readout_qualifier = ">"
numeric_readout = 10

[[record]]
compound = "C#Cc1cccc(Nc2nc3cc(C(=O)O)ccc3c3cnc(NC4CCNCC4)nc23)c1 [drawing 330]"
quantity = "IC50"
unit = "µM"
readout_qualifier = "="
numeric_readout = 8.62

[[record]]
compound = "C#Cc1cccc(Nc2nc3cc(C(=O)O)ccc3c3cnc(NCCCOC(C)C)nc23)c1 [drawing 349]"
quantity = "IC50"
unit = "µM"
readout_qualifier = "="
numeric_readout = 2.01

[[record]]
compound = "CC(C)Nc1ncc2c(n1)c(Nc1cccc(Cl)c1)nc1cc(C(=O)O)ccc12 [drawing 340]"
quantity = "IC50"
unit = "µM"
readout_qualifier = "="
numeric_readout = 5.45

[[record]]
compound = "CNc1ncc2c(n1)c(Nc1ccccc1)nc1cc(C(=O)OC)ccc12"
quantity = "IC50"
unit = "µM"
readout_qualifier = ">"
numeric_readout = 10

[[record]]
compound = "C#Cc1cccc(Nc2nc3cc(C(=O)O)ccc3c3cnc(NC4CC4)nc23)c1 [drawing 327]"
quantity = "IC50"
unit = "µM"
readout_qualifier = "="
numeric_readout = 1.2

[[record]]
compound = "O=C(O)c1ccc2c(c1)nc(Nc1cc(F)cc(F)c1)c1ncncc12 [drawing 301]"
quantity = "IC50"
unit = "µM"
readout_qualifier = "="
numeric_readout = 0.85

[[record]]
compound = "CCNc1ncc2c(n1)c(Nc1cccc(Cl)c1)nc1cc(C(=O)O)ccc12 [drawing 342]"
quantity = "IC50"
unit = "µM"
readout_qualifier = "="
numeric_readout = 0.92

[[record]]
compound = "O=C(O)c1ccc2c(c1)nc(Nc1ccc(F)c(Cl)c1)c1ccncc12 [drawing 291]"
quantity = "IC50"
unit = "µM"
readout_qualifier = "="
numeric_readout = 3.06

[[record]]
compound = "N#Cc1cccc(Nc2nc3cc(C(=O)O)ccc3c3cnccc23)c1 [drawing 312]"
quantity = "IC50"
unit = "µM"
readout_qualifier = ">"
numeric_readout = 10

[[record]]
compound = "COc1cccc(Nc2nc3cc(C(=O)O)ccc3c3cnccc23)c1"
quantity = "IC50"
unit = "µM"
readout_qualifier = ">"
numeric_readout = 10

[[record]]
compound = "O=C(O)c1ccc2c(c1)nc(Nc1ccccc1)c1nc(NC3CC3)ncc12 [drawing 318]"
quantity = "IC50"
unit = "µM"
readout_qualifier = "="
numeric_readout = 0.68

[[record]]
compound = "C#Cc1cccc(Nc2nc3cc(C(=O)O)ccc3c3cnc(NCCOC)nc23)c1 [drawing 329]"
quantity = "IC50"
unit = "µM"
readout_qualifier = "="
numeric_readout = 1


Reference source for all entries: patent EP2061765B1
